Tested system: dimeric human IgG-lambda (Southern Biotech, Birmingham AL)
Protocol notes: BLI (ForteBio), biotinylated ligand on sensor, 1:1 fit
Listed here are binders together with their documented Kd.

Previously resolved entries follow.
| Binder | Kd |
| --- | --- |
| affinity ligand SEQ ID NO: 92 (designed binder, biotinylated (AviTag system)) MGGGGSAAAGDEAQRWENQGAAYAARGDYDRAIEYYERALELEPNNAWAWWELGVAYAARGDYDRAIEYYERALELDPDDATAWSRLGHAYAARGDYDRAIGYYERALELDPENETARYLLEHARRARQGQAGQGGGSGLNDIFEAQKIEWHECHHHHHH | < 1 nM |
| affinity ligand SEQ ID NO: 84 (designed binder, biotinylated (AviTag system)) MGGGGSAAAGDEGGRWEGQGAAYAARGDYDRAIEYYERALELDPNNAWAWWDLGVAYAARGDYDRAIEYYERALELDPDDATAWSRLGHAYAARGDYDRAIEYYERALELDPEDETARYLLEHARRARQGQAGQGGGSGLNDIFEAQKIEWHECHHHHHH | < 1 nM |

Here is the next item to consider.
Q: Entry under review: affinity ligand SEQ ID NO: 83 (designed binder, biotinylated (AviTag system)) MGGGGSAAAGDEADRWADLGAAYAARGDYDRAIEYYQRALELDPNNAWAWWDLGVAYAARGDYDRAIEYYQRALELDPNNAVAWRRLGHAYAARGDYDRAIEYYQRALELDPNNELAREQLGRARRARRGQAGQGGGSGLNDIFEAQKIEWHECHHHHHH . Reported Kd?
A: < 1 nM

From: patent US20250059258A1
